system: Brain; assay: Drug level in C57BL/6N mouse brain assessed as compound level per gram of brain tissue at 15 mg/kg, ip measured 3 hrs post dose by HPLC; format: ADME, organism-based; set-up: dose 15 mg/kg, route intraperitoneal; conditions: in vivo, 3 h
measured_parameter: brain concentration (ng/g)

{"structure_smiles": "Cc1ccc(Nc2nnc(-c3ccc([N+](=O)[O-])cc3)o2)cc1Cl", "target_entity": "Brain", "scale_unit": "ng/g", "obs_value": 286}

----------
assay: Drug level in C57BL/6N mouse plasma at 1 mg/kg, ip measured 3 hrs post dose by HPLC; format: ADME, organism-based; parameters: dose 1 mg/kg, route intraperitoneal

{"structure_smiles": "Cc1ccc(Nc2nnc(-c3ccc([N+](=O)[O-])cc3)o2)cc1Cl", "concentration at 3 h [ng/mL]": 14}
